# pIC50 annotations
Tested on: Zymosan Stimulated Macrophaqes
experiment: Test A: Inhibition of Arachidonic Acid Release from Zymosan Stimulated Macrophages
Type: cell-based, mouse (female MF1)
condition notes: inhibition of arachidonic acid release; six concentrations (100, 50, 20, 10, 5 and 1 μM); 5 h with zymosan; read-out: Test A IC50
pIC50: −log10 of the molar value.
readout name: pIC50

1. Cc1cn(CCCNCc2ccc(Cl)cc2)c(Cc2ccccc2)n1 ... 5.15
2. CC(NCCCn1ccnc1)c1ccc(Cl)cc1 (single isomer, unassigned; (-)) [Example 92] ... 4.70
3. CC(C)(NCCCn1ccnc1)c1ccc(Cl)cc1 ... 4.46
4. CC(NCCCn1ccnc1)c1ccc(Cl)cc1 (single isomer, unassigned; (+)) [Example 93] ... 4.80

###

# pIC50 annotations
Test system: Zymosan Stimulated Macrophaqes
experiment: Test A: Inhibition of Arachidonic Acid Release from Zymosan Stimulated Macrophages
Format: cell-based, mouse (female MF1)
condition notes: Mus musculus, Macrophage, 5 h, inhibition of arachidonic acid release; six concentrations (100, 50, 20, 10, 5 and 1 μM); 5 h with zymosan; read-out: Test A IC50
pIC50: −log10 of the molar value. Where a name gives a salt, the structure may show the parent alone.
readout name: pIC50

1. CC(C)(NCCCn1cnc(CO)c1)c1ccc(-c2ccccc2)cc1 ... 4.35
2. CC(C)c1nccn1CCCNCc1ccc(Cl)cc1 ... 4.60
3. CC(NCCCn1ccnc1)c1ccc(C(C)(C)C)cc1 (centres unmarked) ... 4.92
4. FC(F)(F)Oc1ccc(CNCCCn2ccnc2)cc1 [Example 38, dihydrochloride] ... 4.10
5. CC(NCCCn1ccnc1)c1ccccc1Cl (centres unmarked) ... 4.04

###

Tested on: Zymosan Stimulated Macrophaqes
experiment: Test A: Inhibition of Arachidonic Acid Release from Zymosan Stimulated Macrophages
Format: cell-based, mouse (female MF1)
condition notes: Mus musculus, Macrophage, 5 h, inhibition of arachidonic acid release; six concentrations (100, 50, 20, 10, 5 and 1 μM); 5 h with zymosan; read-out: Test A IC50
Where a name gives a salt, the structure may show the parent alone.
readout name: log10 IC50 (log10 of the value in µM)

1. Cc1cn(CCCNC(C)c2ccc(Cl)cc2)c(-c2ccccc2)n1 (stereo not shown) ... 1.00
2. Cc1nccn1CCCNC(C)c1ccc(Cl)cc1 (stereo not shown) [Example 27, dihydrochloride] ... 0.90
3. COc1cc(Cl)ccc1C(C)NCCCn1ccnc1 (stereo not shown) ... 1.95
4. CCCCOc1ccc(C(C)NCCCn2ccnc2)cc1 (stereo not shown) [Example 22, dioxalate] ... 1.32
5. Brc1ccc(CNCCCn2ccnc2)cc1 ... 1.95
6. CCC(NCCCn1ccnc1)c1ccc(Cl)cc1 (stereo not shown) [Example 30, oxalate] ... 1.38
7. CC(NCCCn1ccnc1)c1ccc(Cl)cc1Cl (stereo not shown) ... 1.59
8. Cc1ncn(CCCNCc2ccc(Cl)cc2)c1C [Example 45, dihydrochloride] ... 0.90
9. Cc1nccn1CCCCCNCc1ccc(Cl)cc1 ... 0.60
10. CC(NCCCn1ccnc1)c1ccc(F)cc1 (stereo not shown) ... 1.98
